Experiment: Subunit association by FPLC on Sephacryl S-100HR
Assay type: physicochemical
Conditions: Sephacryl S-100HR, 50 mM potassium phosphate, 500 mM NaCl

{"molecule": "TM2 S36A-T78A-D116A: TM2 with 36th serine, 78th threonine and 116th aspartic acid replaced with alanine; SEQ ID NO: 8 (protein, Synthetic TM2 S36A-T78A-D116A) MSDVQSSLTGTWYNELNSKMELTANKDGTLTGKYLAKVGDVYVPYPLSGRYNLQPPAGQGVALGWAVSWENSKIHSAATWSGQFFSESSPVILTQWLLSSSTARGDVWESTLVGNASFTKTAPTEQQIAHAQLHCRAPRLK", "Structure (identified by FPLC)": "dimer"}
